assay: AUC in mouse at 10 mg/kg, po by WinNonlin non-compartmental analysis; format: ADME, organism-based; set-up: dose 10 mg/kg, route po; details: in vivo, read-out: AUC
I'd appreciate it if you could supply AUC values for the items below.
Note to self: number, then unit, no commentary.

Guide cases for AUC, answers given:
# COMPOUND_SMILES, VALUE_REPORTED
measured = [
    ("CC(C)c1cnc(-c2cc(Cl)ccc2F)cc1Nc1ccncc1C(=O)NCC(N)=O", "1.47 µM·h"),
    ("CC(C)c1cnc(-c2cc(Cl)ccc2F)cc1Nc1ccncc1C(=O)NCCN", "0.93 µM·h"),
]

Consider the following items and state reported AUC for each.
1. CC(C)c1cnc(-c2cc(Cl)ccc2F)cc1Nc1ccncc1C(=O)NC[C@H](C)O
2. CC(C)c1cnc(-c2cc(Cl)ccc2F)cc1Nc1ccncc1C(=O)NC(CO)CO

Result:
2.54 µM·h
16.2 µM·h

----------
experiment: Cmax in mouse at 10 mg/kg, po by WinNonlin non-compartmental analysis; format: ADME, organism-based; set-up: dose 10 mg/kg, route po; settings: in vivo
Y means recorded Cmax is 1000 nM or above; N means it is below 1000 nM.

Would you please look over these solved cases?
# COMPOUND_SMILES, CLASS_LABEL
records = [
    ("CC(C)c1cnc(-c2cc(Cl)ccc2F)cc1Nc1ccncc1C(=O)N[C@@H](C)CO", "Y"),
    ("CC(C)c1cnc(-c2cc(Cl)ccc2F)cc1Nc1ccncc1C(=O)NCCN", "N"),
    ("CC(C)c1cnc(-c2cc(Cl)ccc2F)cc1Nc1ccncc1C(=O)NC[C@H](C)O", "Y"),
]

Now look at this one.
Q: Assess whether reported Cmax for "CC(C)c1cnc(-c2cc(Cl)ccc2F)cc1Nc1ccncc1C(=O)NC(CO)CO" sits at 1000 nM or higher.
Result: Y

----------
test: Oral bioavailability in mouse at 10 mg/kg by WinNonlin non-compartmental analysis; format: ADME, organism-based; conditions: in vivo
MEASURE: bioavailability (%)
Numbers only, in %.

Example cases with answers are listed next.
# COMPOUND, VALUE_REPORTED
rows = [
    ("CC(C)c1cnc(-c2cc(Cl)ccc2F)cc1Nc1ccncc1C(=O)NCCN", 16),
    ("CC(C)c1cnc(-c2cc(Cl)ccc2F)cc1Nc1ccncc1C(=O)NCC(N)=O", 38),
    ("CC(C)c1cnc(-c2cc(Cl)ccc2F)cc1Nc1ccncc1C(=O)NC(CO)CO [PF-06952229]", 87),
]

In the following, a different compound is considered.
Q: Bench note: what bioavailability did "CC(C)c1cnc(-c2cc(Cl)ccc2F)cc1Nc1ccncc1C(=O)NC[C@H](C)O" show?
Result: 33
